src = paper PMC11590367

tested on: ER transcriptional activity in T47D-KBluc cells; test: Luciferase transcriptional assay; assay type: cell-based; conditions: 24 h, ER transcription, luciferase reporter, 1 nM E2, 24 h treatment; ± SD of 3 biological replicates
assay-endpoint: pIC50
For clarity, pIC50 is expressed as the negative log10 of concentration in mol/L.

Field pIC50 (entry `Cc1cccn2c(CNCc3cccc(NC(=O)[C@@H]4CCCO4)c3)cnc12` ) reads 4.97

Entry `Cc1cccc(Oc2ccc(NC(=O)N[C@H]3C[C@H](CO)C3)cn2)c1C` ; pIC50 = 4.97

`Cc1cccn2c(CNCc3ccc(F)cc3F)cnc12` yielded pIC50 of 5.19

The reported pIC50 of the molecule `CCNC(=O)c1cccc(CNCc2cnc3c(C)cccn23)c1` was 4.86

Lab note: `Cc1cccn2c(CNCc3cccc(NC(=O)[C@H]4CCCO4)c3)cnc12` gave pIC50 of 4.92
